Every entry's value here was drawn from patent US20220370440A1.

measured_on: EGFR Exon 20 INSNPH Ba/F3 (Homo sapiens, UniProt P00533, DUP771-773, cells depend on it)
Sequence (P00533 with tags, fused parts or gaps DUP771-773): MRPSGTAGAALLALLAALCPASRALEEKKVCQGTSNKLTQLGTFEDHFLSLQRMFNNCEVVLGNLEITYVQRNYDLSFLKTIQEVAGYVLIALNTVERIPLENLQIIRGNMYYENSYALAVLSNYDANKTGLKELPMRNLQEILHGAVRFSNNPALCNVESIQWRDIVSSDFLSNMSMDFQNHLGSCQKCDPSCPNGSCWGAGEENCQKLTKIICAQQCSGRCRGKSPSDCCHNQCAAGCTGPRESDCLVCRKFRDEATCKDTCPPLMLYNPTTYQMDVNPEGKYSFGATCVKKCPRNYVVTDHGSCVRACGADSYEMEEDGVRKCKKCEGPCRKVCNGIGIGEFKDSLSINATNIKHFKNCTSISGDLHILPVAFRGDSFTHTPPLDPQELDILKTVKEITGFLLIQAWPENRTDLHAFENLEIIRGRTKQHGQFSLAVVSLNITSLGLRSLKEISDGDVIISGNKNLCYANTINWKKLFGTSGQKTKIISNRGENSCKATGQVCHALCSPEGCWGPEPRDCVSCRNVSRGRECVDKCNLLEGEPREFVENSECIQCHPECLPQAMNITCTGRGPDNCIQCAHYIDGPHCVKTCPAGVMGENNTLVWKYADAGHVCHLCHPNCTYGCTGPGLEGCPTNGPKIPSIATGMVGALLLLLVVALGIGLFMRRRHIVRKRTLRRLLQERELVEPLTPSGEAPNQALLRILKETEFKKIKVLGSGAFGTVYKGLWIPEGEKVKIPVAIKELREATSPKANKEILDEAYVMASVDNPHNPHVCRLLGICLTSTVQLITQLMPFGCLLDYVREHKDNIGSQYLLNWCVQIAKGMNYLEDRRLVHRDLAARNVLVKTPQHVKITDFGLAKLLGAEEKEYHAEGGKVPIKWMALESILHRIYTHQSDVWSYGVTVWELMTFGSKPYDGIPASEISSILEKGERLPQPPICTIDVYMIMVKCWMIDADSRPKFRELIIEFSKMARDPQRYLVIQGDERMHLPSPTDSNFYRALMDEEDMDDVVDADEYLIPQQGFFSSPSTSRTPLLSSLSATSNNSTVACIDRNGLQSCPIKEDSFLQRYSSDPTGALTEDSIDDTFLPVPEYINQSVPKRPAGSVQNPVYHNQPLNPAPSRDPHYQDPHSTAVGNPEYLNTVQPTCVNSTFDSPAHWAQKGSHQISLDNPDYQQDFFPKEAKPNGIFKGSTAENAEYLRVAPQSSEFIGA
procedure_summary: EGFR Exon 20 INSNPH Ba/F3 CellTiter-Glo
Type: cell-based
experimental_setup: CellTiter-Glo, 72 h, read-out: EGFR Exon 20 INSNPH Ba/F3 CTG IC50
measured_quantity: GI50

> print(dat)
                            chemical.string       observed
1  C=CC(=O)Nc1cc(-c2c(-c3ccc(C4CCN(C)CC4)cc3)[nH]c3ncc(C(=O)OC(C)C)cc23)ccc1C  100 to 500 nM
2  C=CC(=O)Nc1cc(-c2c(-c3cccc(OCCN(C)C)c3)[nH]c3nccc(Cl)c23)ccc1C  100 to 500 nM

Given item "C=CC(=O)Nc1cc(-c2c(-c3ccnc(N4CCOCC4)c3)[nH]c3ncc(C(=O)OC(C)C)cc23)ccc1C" , the value recorded as its GI50 is 1000 to 10000 nM

Given item "C=CC(=O)Nc1cc(-c2c(-c3ccc(CN(C)C)cc3)[nH]c3nccc(Cl)c23)ccc1C" , the value recorded as its GI50 is ≤ 100 nM

----------
measured_on: Her2 Exon 20 INSYVMA Ba/F3 (Homo sapiens, UniProt P04626, DUP772-775, cells depend on it)
Sequence (P04626 with tags, fused parts or gaps DUP772-775): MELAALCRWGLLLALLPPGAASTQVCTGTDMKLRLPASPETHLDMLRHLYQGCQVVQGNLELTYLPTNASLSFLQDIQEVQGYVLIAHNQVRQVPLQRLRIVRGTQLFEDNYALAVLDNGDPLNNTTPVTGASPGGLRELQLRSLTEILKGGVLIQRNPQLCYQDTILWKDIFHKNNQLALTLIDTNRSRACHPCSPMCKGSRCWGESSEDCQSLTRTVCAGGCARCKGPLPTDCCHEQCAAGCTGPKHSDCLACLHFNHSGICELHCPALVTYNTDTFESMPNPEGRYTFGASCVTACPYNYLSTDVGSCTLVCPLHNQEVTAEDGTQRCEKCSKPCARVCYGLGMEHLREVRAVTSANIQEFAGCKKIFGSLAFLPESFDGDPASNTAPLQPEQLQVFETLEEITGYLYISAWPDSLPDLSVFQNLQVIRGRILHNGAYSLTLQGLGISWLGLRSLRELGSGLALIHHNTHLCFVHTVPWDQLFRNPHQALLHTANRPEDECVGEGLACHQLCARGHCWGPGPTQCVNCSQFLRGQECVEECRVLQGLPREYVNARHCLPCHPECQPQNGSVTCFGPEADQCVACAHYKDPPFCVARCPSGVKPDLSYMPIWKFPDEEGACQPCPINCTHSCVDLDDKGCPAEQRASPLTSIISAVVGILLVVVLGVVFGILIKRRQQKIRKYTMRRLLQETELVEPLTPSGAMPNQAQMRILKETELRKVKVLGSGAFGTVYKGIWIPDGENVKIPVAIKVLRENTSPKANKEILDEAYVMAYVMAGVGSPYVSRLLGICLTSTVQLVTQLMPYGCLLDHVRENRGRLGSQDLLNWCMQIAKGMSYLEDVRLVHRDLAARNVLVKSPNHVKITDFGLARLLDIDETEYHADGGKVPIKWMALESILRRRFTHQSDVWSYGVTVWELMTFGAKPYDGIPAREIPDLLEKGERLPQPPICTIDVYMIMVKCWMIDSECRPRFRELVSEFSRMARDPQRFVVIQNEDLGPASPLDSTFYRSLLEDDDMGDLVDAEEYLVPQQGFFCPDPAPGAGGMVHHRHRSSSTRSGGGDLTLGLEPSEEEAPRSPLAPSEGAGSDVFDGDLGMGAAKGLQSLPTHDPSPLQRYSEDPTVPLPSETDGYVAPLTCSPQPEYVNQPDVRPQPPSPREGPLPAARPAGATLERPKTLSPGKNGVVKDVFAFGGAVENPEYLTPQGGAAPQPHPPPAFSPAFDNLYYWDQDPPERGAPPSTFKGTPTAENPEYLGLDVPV
procedure_summary: Her2 Exon 20 INSYVMA Ba/F3 CellTiter-Glo
Type: cell-based
experimental_setup: CellTiter-Glo, 72 h, read-out: Her2 Exon 20 INSYVMA Ba/F3 CTG IC50
measured_quantity: GI50

> print(dat)
                                   compound          observed
1  C=CC(=O)Nc1cc(-c2c(-c3ccc(CN(C)C)cc3)[nH]c3ncc(C(=O)OC(C)C)cc23)ccc1C     100 to 500 nM
2  C=CC(=O)Nc1cc(-c2c(-c3ccc(N4CCN(C)CC4)nc3)[nH]c3ncccc23)ccc1C [Example 78, 2,2,2-trifluoroacetate]     100 to 500 nM
3  C=CC(=O)Nc1cc(-c2c(-c3cnc(N4CCOCC4)nc3)[nH]c3nccc(Cl)c23)ccc1C  1000 to 10000 nM

Please find the next compound below.
Given item "C=CC(=O)Nc1cc(-c2c(-c3ccc(OCCN(C)C)cc3)[nH]c3ncc(C(=O)OC(C)C)c(C)c23)ccc1C" , the value recorded as its GI50 is 100 to 500 nM

----------
measured_on: EGFR Exon 20 INSNPH Ba/F3 (Homo sapiens, UniProt P00533, DUP771-773, cells depend on it)
procedure_summary: EGFR Exon 20 INSNPH Ba/F3 CellTiter-Glo
Format: cell-based
experimental_setup: CellTiter-Glo, 72 h, read-out: EGFR Exon 20 INSNPH Ba/F3 CTG IC50
measured_quantity: GI50

Given item C=CC(=O)Nc1cc(-c2c(-c3ccc(N4CCN(C)CC4)cc3)[nH]c3ncc(C(=O)OC4CC4)cc23)ccc1C [Example 138] , the value recorded as its GI50 is 0.1 to 0.5 µM

Given item C=CC(=O)Nc1cc(-c2c(-c3ccc(N4CCN(C)CC4)cc3)[nH]c3ncc(CC(=O)OC4COC4)cc23)ccc1C [Example 197] , the value recorded as its GI50 is 0.1 to 0.5 µM

Given item C=CC(=O)N1CCc2ccc(-c3c(-c4ccc(N5CCN(C)CC5)cc4)[nH]c4nccc(OC(C)C)c34)cc21 [Example 115, 2,2,2-trifluoroacetate] , the value recorded as its GI50 is 0.1 to 0.5 µM

Given item C=CC(=O)N1CCc2ccc(-c3c(-c4ccc(N5CCN(CC)CC5)cc4)[nH]c4nccc(Cl)c34)cc21 [Example 63] , the value recorded as its GI50 is 0.1 to 0.5 µM

Given item C=CC(=O)Nc1cc(-c2c(-c3ccc(N4CCN(C)CC4)cc3)[nH]c3ncc(CO)cc23)ccc1C [Example 199, 2,2,2-trifluoroacetate] , the value recorded as its GI50 is 0.1 to 0.5 µM
